System: Pasteurella multocida

SMILES STRUCTURE | MIC
CC[C@H](C)[C@H](NC(=O)[C@H](CO)NC(=O)CNC(=O)[C@H](C)NC(=O)[C@@H](NC(=O)[C@H](Cc1cnc[nH]1)NC(=O)CNC(=O)[C@H](C)NC(=O)[C@@H](NC(=O)[C@H](CCCCN)NC(=O)[C@H](CCCCN)NC(=O)[C@@H](NC(=O)[C@@H](NC(=O)[C@H](CC(=O)O)NC(=O)[C@H](Cc1ccccc1)NC(=O)[C@H](CC(C)C)NC(=O)CN)[C@@H](C)CC)C(C)C)[C@@H](C)CC)[C@@H](C)CC)C(N)=O | ≥ 57.5 µM
CC[C@H](C)[C@H](NC(=O)[C@H](CC(=O)O)NC(=O)[C@H](Cc1ccccc1)NC(=O)[C@H](CC(C)C)NC(=O)CN)C(=O)N[C@H](C(=O)N[C@@H](CCCCN)C(=O)N[C@@H](CCCCN)C(=O)N[C@H](C(=O)N[C@@H](C)C(=O)N[C@@H](CO)C(=O)N[C@H](C(=O)N[C@H](C(=O)NCC(=O)NCC(=O)N[C@@H](CC(C)C)C(N)=O)C(C)C)C(C)C)C(C)C)[C@@H](C)CC | ≥ 61.9 µM
CC[C@H](C)[C@H](NC(=O)[C@H](Cc1cnc[nH]1)NC(=O)[C@@H](NC(=O)[C@@H](NC(=O)[C@H](CCCCN)NC(=O)[C@H](CCCN=C(N)N)NC(=O)[C@@H](NC(=O)[C@@H](NC(=O)[C@H](CCCN=C(N)N)NC(=O)[C@H](CCCN=C(N)N)NC(=O)[C@@H](N)CC(C)C)[C@@H](C)CC)[C@@H](C)CC)[C@@H](C)CC)[C@@H](C)CC)C(=O)N[C@H](C(=O)N[C@@H](CCCCN)C(N)=O)[C@@H](C)CC | 2.99 µM
CC[C@H](C)[C@H](NC(=O)[C@@H](NC(=O)[C@H](C)NC(=O)[C@H](Cc1ccccc1)NC(=O)[C@H](CC(C)C)NC(=O)CN)C(C)C)C(=O)N[C@@H](CCCCN)C(=O)N[C@@H](CCCCN)C(=O)N[C@H](C(=O)N[C@@H](C)C(=O)N[C@@H](CO)C(=O)N[C@H](C(=O)N[C@H](C(=O)N[C@@H](CCCCN)C(=O)NCC(=O)N[C@@H](CC(C)C)C(N)=O)[C@@H](C)CC)C(C)C)C(C)C | ≥ 60.9 µM
CC[C@H](C)[C@H](NC(=O)[C@@H](NC(=O)[C@H](CC(=O)O)NC(=O)[C@H](Cc1ccccc1)NC(=O)[C@H](CC(C)C)NC(=O)CN)C(C)C)C(=O)N[C@@H](C)C(=O)N[C@@H](CCCCN)C(=O)N[C@H](C(=O)N[C@@H](C)C(=O)N[C@@H](CO)C(=O)N[C@H](C(=O)N[C@H](C(=O)N[C@@H](CCCCN)C(=O)N[C@@H](CCCCN)C(=O)N[C@@H](CC(C)C)C(N)=O)[C@@H](C)CC)C(C)C)C(C)C | ≥ 58.8 µM
CC[C@H](C)[C@H](NC(=O)[C@@H](NC(=O)CN)C(C)C)C(=O)N[C@@H](CC(=O)O)C(=O)N[C@@H](C)C(=O)N[C@@H](C)C(=O)N[C@@H](CCCCN)C(=O)N[C@@H](CCCCN)C(=O)N[C@H](C(=O)N[C@H](C(=O)N[C@@H](CC(N)=O)C(=O)N[C@H](C(=O)N[C@@H](CC(C)C)C(=O)N[C@@H](CCCCN)C(=O)N[C@@H](CC(N)=O)C(=O)N[C@@H](CC(C)C)C(=O)N1CCC[C@H]1C(N)=O)C(C)C)C(C)C)C(C)C | ≥ 56.2 µM

====

System: Pseudomonas aeruginosa KCTC 1637
TEST METHOD NOTES: ≥ marks a high value that may be exact or a test limit, other limits are often not marked, values filed in µg/mL are converted to µM

MOLECULE | COMPARISON OPERATOR | MIC (µM)
C[C@@H](O)[C@H](NC(=O)[C@H](CCCCN)NC(=O)[C@H](Cc1c[nH]c2ccccc12)NC(=O)[C@H](Cc1c[nH]c2ccccc12)NC(=O)[C@@H](NC(=O)[C@H](CCCCN)NC(=O)[C@@H](N)CCCCN)[C@@H](C)O)C(=O)N[C@@H](Cc1c[nH]c2ccccc12)C(=O)N[C@@H](Cc1c[nH]c2ccccc12)C(=O)N[C@H](C(=O)N[C@@H](CCCCN)C(=O)N[C@@H](Cc1c[nH]c2ccccc12)C(=O)N[C@@H](CO)C(=O)N[C@@H](CCC(N)=O)C(=O)N1CCC[C@H]1C(=O)O)[C@@H](C)O [KKTWWKTWWTKWSQP] | = | 8
CC[C@H](C)[C@H](NC(=O)[C@H](C)NC(=O)[C@H](CC(C)C)NC(=O)[C@H](Cc1c[nH]c2ccccc12)NC(=O)[C@H](CC(C)C)NC(=O)[C@@H](N)CCCN=C(N)N)C(=O)NCC(=O)N[C@@H](CCCN=C(N)N)C(=O)N[C@@H](CCCN=C(N)N)C(N)=O [RLWLAIGRR] | = | 16
CC[C@H](C)[C@H](N)C(=O)N[C@@H](CC(C)C)C(=O)N[C@@H](CCCCN)C(=O)N[C@@H](Cc1c[nH]c2ccccc12)C(=O)N[C@@H](CCCCN)C(=O)N[C@@H](Cc1c[nH]c2ccccc12)C(=O)N[C@@H](CCCCN)C(=O)N[C@@H](Cc1c[nH]c2ccccc12)C(=O)N[C@@H](Cc1c[nH]c2ccccc12)C(=O)N[C@@H](CCCCN)C(=O)N[C@@H](Cc1c[nH]c2ccccc12)C(=O)N[C@@H](CCCN=C(N)N)C(=O)N[C@@H](CCCN=C(N)N)C(N)=O [ILKWKWKWWKWRR] | = | 5
CC(C)C[C@H](NC(=O)[C@H](Cc1c[nH]c2ccccc12)NC(=O)[C@H](CC(C)C)NC(=O)[C@@H](N)CCCN=C(N)N)C(=O)N[C@@H](C)C(=O)N[C@@H](Cc1c[nH]c2ccccc12)C(=O)N[C@@H](CCCCN)C(=O)N[C@@H](CCCN=C(N)N)C(=O)N[C@@H](CCCN=C(N)N)C(N)=O [RLWLAWKRR] | = | 8
CC[C@H](C)[C@H](NC(=O)[C@H](CCCCN)NC(=O)[C@H](CCCCN)NC(=O)[C@H](Cc1ccccc1)NC(=O)[C@H](CC(C)C)NC(=O)[C@H](CCCCN)NC(=O)[C@H](Cc1c[nH]c2ccccc12)NC(=O)[C@@H](N)CCCCN)C(=O)N1CCC[C@H]1C(=O)N[C@@H](CCCCN)C(=O)N[C@@H](Cc1ccccc1)C(=O)N[C@@H](CC(C)C)C(=O)N[C@@H](Cc1cnc[nH]1)C(=O)N[C@@H](CC(C)C)C(=O)N[C@@H](C)C(N)=O [KWKLFKKIPKFLHLA] | = | 6.25
CC[C@H](C)[C@H](N)C(=O)N[C@@H](CC(C)C)C(=O)N1CCC[C@H]1C(=O)N[C@@H](Cc1c[nH]c2ccccc12)C(=O)N[C@@H](CCCCN)C(=O)N[C@@H](CCCCN)C(=O)N1CCC[C@H]1C(=O)N[C@@H](CCCCN)C(=O)N[C@@H](CCCCN)C(=O)N1CCC[C@H]1C(=O)N[C@@H](CCCCN)C(=O)N[C@@H](CCCN=C(N)N)C(=O)N[C@@H](CCCN=C(N)N)C(N)=O [ILPWKKPKKPKRR] | = | 5.97
CC[C@H](C)[C@H](NC(=O)[C@H](CCCN=C(N)N)NC(=O)[C@H](CCC(N)=O)NC(=O)[C@@H](NC(=O)[C@@H](NC(=O)[C@H](CCCN=C(N)N)NC(=O)[C@@H](N)CCCCN)[C@@H](C)CC)C(C)C)C(=O)N[C@@H](CCCCN)C(=O)N[C@@H](CC(=O)O)C(=O)N[C@@H](Cc1c[nH]c2ccccc12)C(=O)N[C@@H](CC(C)C)C(=O)N[C@@H](CCCN=C(N)N)C(N)=O [KRIVQRIKDWLR] | = | 8
CC[C@H](C)[C@@H]1NC(=O)[C@H](CCCN=C(N)N)NC(=O)[C@@H](NC(=O)[C@H](CC(C)C)NC(=O)[C@@H](N)CCCN=C(N)N)CSSC[C@@H](C(=O)N[C@@H](CCCN=C(N)N)C(N)=O)NC(=O)[C@H](C(C)C)NC(=O)[C@H](CCCN=C(N)N)NC(=O)[C@H]([C@@H](C)CC)NC(=O)[C@H](C(C)C)NC(=O)[C@H](C(C)C)NC1=O [RLCRIVVIRVCR] | = | 16.8
CC[C@H](C)[C@H](N)C(=O)N[C@@H](CC(C)C)C(=O)NCC(=O)N[C@@H](CCCCN)C(=O)N[C@H](C(=O)N[C@@H](C)C(=O)N[C@@H](CCC(=O)O)C(=O)NCC(=O)N[C@H](C(=O)N[C@@H](CCCCN)C(=O)N[C@@H](CO)C(=O)N[C@@H](CC(C)C)C(=O)N[C@@H](Cc1ccccc1)C(N)=O)[C@@H](C)CC)[C@@H](C)CC [ILGKIAEGIKSLF] | ≥ | 32
CC[C@H](C)[C@H](N)C(=O)N[C@@H](CC(C)C)C(=O)N1CCC[C@H]1C(=O)N[C@@H](Cc1c[nH]c2ccccc12)C(=O)N[C@@H](CCCCN)C(=O)N[C@@H](Cc1c[nH]c2ccccc12)C(=O)N1CCC[C@H]1C(=O)N[C@@H](CCCCN)C(=O)N[C@@H](Cc1c[nH]c2ccccc12)C(=O)N1CCC[C@H]1C(=O)N[C@@H](Cc1c[nH]c2ccccc12)C(=O)N[C@@H](CCCN=C(N)N)C(=O)N[C@@H](CCCN=C(N)N)C(N)=O [ILPWKWPKWPWRR] | = | 10.8
